- Test Summary: qHTS of pediatric cancer cell lines to identify multiple opportunities for drug repurposing: Confirmatory screen for U-2 OS cells (AID 1347122); further: nearly all actives have a fitted effect of over 65% in size
- Measurement Conditions: U-2 OS osteosarcoma cell viability; series mostly up to 45.9 µM
Inconclusive results are not listed. Active and inactive are the calls of the source. The call rests on the fitted dose curve; in most records, active means well fitted cell-killing curve with a large enough effect; inconclusive means small, poorly fitted or top-dose-only effect; inactive means no such curve, though single readings can be large or run the other way.
In this exercise, the only acceptable responses are active, inactive

Per the assay record, what outcome was assigned to Cc1cnc(-c2cc(N3CCN(C(=O)CCS(C)(=O)=O)CC3)ncc2Cl)c(C)c1 ?
inactive

For CSc1cccc(Nc2ncc3cc(-c4c(Cl)cccc4Cl)c(=O)n(C)c3n2)c1 then?
active

Note, next up: Nc1ccc(-c2ccc3ncc4ccc(=O)n(-c5cccc(C(F)(F)F)c5)c4c3c2)cn1
active

Item: Cc1nn(Cc2ccccc2Cl)c(C)c1CN(C)CC(O)COc1ccc(Cl)cc1 (centres undefined)
active

And what about the compound CCC(=O)N1CCN(c2ccc(-n3c(=O)ccc4cnc5ccc(-c6cnc7ccccc7c6)cc5c43)cc2C(F)(F)F)CC1 ?
inactive

Entry O=C1NC(=O)C(c2cnc3ccccn23)=C1c1cn2c3c(cccc13)CN(C(=O)N1CCOCC1)CC2 please
inactive

Cool, now CC1(C)OC2CC3C4CC(F)C5=CC(=O)C=CC5(C)C4C(O)CC3(C)[C@]2(C(=O)CO)O1 (some centres undefined)
inactive

Follow-up entry: CCC[C@H](N[C@@H](C)C(=O)N1[C@@H]2CCCC[C@H]2C[C@H]1C(=O)O)C(=O)OCC
inactive

Can you check O=c1[nH]nc(OCCCc2ccc(Cl)cc2)c(NCc2cccnc2)c1Br next?
active

Now give it for COc1cc2c(cc1Cc1cccc(Cl)c1F)c(=O)c(C(=O)O)cn2[C@H](CO)C(C)C too.
inactive

Another: NC(N)=Nc1nc(CSCCC(N)=NS(N)(=O)=O)cs1
inactive

// same read-out, input: C[C@@H]1[C@H](O)[C@@H](C)C=CC=CC=CC=CC=CC=CC=C[C@H](O[C@@H]2O[C@H](C)[C@H](O)[C@H](N)[C@@H]2O)C[C@@H]2O[C@](O)(C[C@@H](O)C[C@@H](O)[C@H](O)CC[C@@H](O)C[C@@H](O)CC(=O)O[C@H]1C)C[C@H](O)[C@@H]2C(=O)O
inactive

Consider next the compound CN1CCN(c2ncc(-c3cc(Cl)cc(Cl)c3Cl)c(N)n2)CC1 in the same way.
inactive

Can you check CCNC(=O)c1noc(-c2cc(C(C)C)c(O)cc2O)c1-c1ccc(CN2CCOCC2)cc1 next?
active

* * *

- Test Summary: Quantitative High-Throughput drug screen in 47 multiple myeloma cell lines against the NCATS MIPE library collection: XG1_PLB cell viability assay (AID 1919866); further: nearly all actives have a fitted effect of over 35% in size
- Measurement Conditions: CellTiter-Glo ATP, 48 h; series mostly up to 45.8 µM
Inconclusive results are not listed. The source made the active and inactive calls. Calls come from the whole dose curve; as a rule, active = well fitted cell-killing curve with a large enough effect; inconclusive = small, poorly fitted or top-dose-only effect, or effect the other way; inactive = no such curve, though single readings can be large or run the other way.
API: response.call in y = active, n = inactive

Would you mind telling me which call this test gave COc1cc(N2CCN(C)CC2)ccc1Nc1nc(N)c(C(=O)c2c(Cl)cccc2Cl)s1 ?
y

What about this molecule? Cc1cn([C@@H]2C[C@@H](O)[C@H](CO)O2)c(=O)[nH]c1=O
n

Same lookup for O=C(O)CCC=CCC[C@@H]1[C@H](N2CCCCC2)[C@@H](O)C[C@@H]1OCc1ccc(-c2ccccc2)cc1 , please.
n

Then what about the molecule OC[C@H]1O[C@@H](O[C@H]2[C@@H](O)[C@@](O)(CO)O[C@@H]2CO)[C@H](O)[C@@H](O)[C@@H]1O ?
y

Now the same for C[C@@]1(C(=O)Nc2ccc(F)nc2)CCCN1c1nc(Nc2cc(C3CC3)[nH]n2)c2cccn2n1
y

What about this molecule? Cc1ccc(S(=O)(=O)Nc2nc3ccccc3nc2Nc2ccc3nsnc3c2)cc1
y

Try COC(=O)[C@H](c1ccccc1Cl)N1CCc2sccc2C1 next.
n

Input O=C(NCCCCN1CCOCC1)c1cc2ccccc2o1
n

Consider next the molecule COc1nc(C)cnc1NS(=O)(=O)c1cccnc1-c1ccc(-c2nnco2)cc1 in the same way.
n

Would you mind doing Cc1cnc(Nc2cccc(CN3CCOCC3)c2)nc1Nc1cccc(S(=O)(=O)NC(C)(C)C)c1 as well?
y

For CN1C(=O)C(Cc2c[nH]c3ccccc23)NC1=S (configuration not stated) then?
n

Follow-up entry: Oc1cc(O)cc(C=Cc2ccc(O)c(O)c2)c1
y

Query COc1ccc2c(c1)CC[C@H]1[C@@H]2CC[C@]2(C)[C@@H](NCCCCCCN3C(=O)C=CC3=O)CC[C@H]12 next
n

Now this one: CN[C@@H]1CN(c2ccc3c(=O)c(C(=O)O)cn(-c4nccs4)c3n2)C[C@@H]1OC
y

Now try CCNC(=O)c1noc(-c2cc(C(C)C)c(O)cc2O)c1-c1ccc(CN2CCOCC2)cc1 .
y

// next record NC(=O)c1ncn([C@@H]2O[C@H](CO)[C@@H](O)[C@@H]2O)n1
n

Please do the same for C[C@]12C=CC(=O)C=C1CC[C@@H]1[C@@H]2[C@@H](O)C[C@@]2(C)[C@@H]1CC[C@]2(O)C(=O)CO as well.
n

Now this one: N=C1SC(=Cc2ccc(-c3ccc4c(c3)C(=O)NC4=O)o2)C(=O)N1c1ccc(Br)cc1
y

Please give the result for CC(C)(C)c1nc(-c2cccc(NS(=O)(=O)c3c(F)cccc3F)c2F)c(-c2ccnc(N)n2)s1 too.
y

// same read-out, input: Cc1ccc(NC(=O)Nc2cc(C(F)(F)F)ccc2F)cc1Nc1ccc2c(c1)NC(=O)C2=Cc1ccc[nH]1
y

Lookup CNC(=O)[C@H](Cc1ccccc1)NC(=O)[C@H](CC(C)C)[C@H](CSc1cccs1)C(=O)NO
y

And what about the molecule CCCCCCCCCCCCCCCC(=O)O[C@H]1[C@@H](O)[C@@H](O)[C@@H]([C@H](NC(=O)[C@@H]2C[C@@H](CCC)CN2C)[C@H](C)Cl)O[C@@H]1SC ?
n

Request: CNC(=O)c1c(-c2ccc(F)cc2)oc2cc(N(CCO)S(C)(=O)=O)c(C3CC3)cc12
y

Next molecule up: CCCCC[C@H](O)C=C[C@H]1[C@H](O)CC(=O)[C@H]1CCCCCCC(=O)O
n

And then COc1ccc(-c2nc3ccc(C4=NNC(=O)CC4C)cc3[nH]2)cc1 (configuration not stated) , what is it?
n

Try the molecule Cc1ccccc1-n1c(Cn2nc(-c3cccc(O)c3)c3c(N)ncnc32)nc2cccc(C)c2c1=O
y

Repeat for the following molecule: O=C(CO)N1CCC(c2[nH]nc(-c3ccc(Cl)cc3)c2-c2ccncn2)CC1
n

* * *

- Test Summary: qHTS of pediatric cancer cell lines to identify multiple opportunities for drug repurposing: Primary screen for BT-37 cells (AID 1347094); further: potency means the concentration at half of the fitted maximal effect
- Measurement Conditions: BT-37 viability, CellTiter-Glo luminescence, 48 h; series mostly up to 57.3 µM
Results filed as inconclusive are left out. Calls of active or inactive are those of the source. Calls come from the whole dose curve; as a rule, active = well fitted cell-killing curve with a large enough effect; inconclusive = small, poorly fitted or top-dose-only effect; inactive = flat fitted curve, though single readings scatter.
Observation Type: Potency

>>> experimental_result("NC(=O)c1noc([C@H](CCCC2CCCCC2)CC(=O)NO)n1")
"21.7 µM (active)"
>>> experimental_result("Cc1ccc(NC(=O)c2ccc(CN3CCN(C)CC3)cc2)cc1Nc1nc(-c2cccnc2)cs1")
"24.3 µM (active)"
>>> experimental_result("O=[N+]([O-])c1ccc(Nc2ccccc2-c2ccccc2)c2nonc12")
"inactive"
>>> experimental_result("O=C1NC(=O)C(c2cnc3ccccn23)=C1c1cn2c3c(cccc13)CN(C(=O)N1CCOCC1)CC2")
"19.3 µM (active)"
>>> experimental_result("CNC(=O)c1cc(Oc2ccc(NC(=O)Nc3ccc(Cl)c(C(F)(F)F)c3)c(F)c2)ccn1")
"21.7 µM (active)"

What measured Potency goes with CON(C)C(=O)N1N=C(c2cc(F)ccc2F)S[C@]1(CCCN)c1ccccc1 ?
inactive

Follow-up item: CN[C@@H]1CN(c2ccc3c(=O)c(C(=O)O)cn(-c4nccs4)c3n2)C[C@@H]1OC
3.35 µM (active)

Repeat with CC(C)CNc1ccnc(NCc2csc(-c3ccccc3)n2)n1
24.3 µM (active)

And CC(C)=CCCC(C)=CCCC(C)=CCCC(C)=CCCC(C)=CCCC(C)=CCCC(C)=CCCC(C)=CCCC(C)=CCO ?
inactive

Then COc1ccc(C=CC(=O)Nc2ccccc2C(=O)O)cc1OC ?
inactive

Thanks! And CCNC(=O)[C@H]1O[C@@H](n2cnc3c(N)nc(NCCc4ccc(CCC(=O)O)cc4)nc32)[C@H](O)[C@H]1O ?
inactive

Now this one: O=C(Nc1ncc(SCCN2CCCC2)s1)[C@]1(c2ccc(S(=O)(=O)C3CC3)cc2)C[C@@H]1C1CCCCC1
30.6 µM (active)

Please give the result for CC[C@H]1OC(=O)[C@H](C)[C@@H](O[C@H]2C[C@@](C)(OC)[C@@H](O)[C@H](C)O2)[C@H](C)[C@@H](O[C@@H]2O[C@H](C)C[C@H](N(C)C)[C@H]2O)[C@](C)(O)C[C@H](C)C(=NOCOCCOC)[C@H](C)[C@@H](O)[C@]1(C)O too.
inactive
